test system: UO-31; assay: NCI tumour cell line growth inhibition, 48 h
Active and inactive are the calls of the source. No stated cut-off is given here; in the data, active = GI50 up to about 1.1 µM and inactive = higher.
Labels: active, inactive

- compound: "CC(=O)OCC1OC(OC2C(COC(C)=O)OC(Sc3ccccc3C)C(OC(C)=O)C2OC(C)=O)C(OC(C)=O)C(OC(C)=O)C1OC(C)=O (centres undefined)"
  discreteLabel: "inactive"
- compound: "CC(=O)O[C@H]1C[C@H](O[C@H]2[C@@H](O)C[C@H](O[C@H]3[C@@H](O)C[C@H](O[C@H]4CC[C@@]5(C)[C@H](CC[C@@H]6[C@@H]5CC[C@]5(O)[C@@H](C7=CC(=O)OC7)CC[C@]65O)C4)O[C@@H]3C)O[C@@H]2C)O[C@H](C)[C@H]1O[C@@H]1O[C@H](CO)[C@@H](O)[C@H](O)[C@H]1O"
  discreteLabel: "active"
- compound: "Cc1ccc(S(=O)(=O)CNC(=O)C(O)(O)C(F)(F)F)cc1"
  discreteLabel: "inactive"
- compound: "[N-]=[N+]=Nc1c(Cl)c(Cl)nc2ccccc12"
  discreteLabel: "inactive"
- compound: "CC1(C)N=C(c2ccccn2)C(c2ccccn2)=NC1(C)C"
  discreteLabel: "inactive"
- compound: "CC(=O)OCC1OC(n2c(C)c(C(C)=O)c(-c3ccco3)c(C#N)c2=S)C(OC(C)=O)C(OC(C)=O)C1OC(C)=O (centres undefined)"
  discreteLabel: "active"
- compound: "[N-]=[N+]=C1C(=O)C2CC3CC1CC2C3 (centres undefined)"
  discreteLabel: "inactive"
- compound: "COCN(CCC1=CCCCC1)C(=O)OC"
  discreteLabel: "inactive"
- compound: "CC1(C)OCC2(CO1)CSCCCSCC1(COC(C)(C)OC1)CSCCCSC2"
  discreteLabel: "inactive"
- compound: "O=CC1=CCCC2(C1)OCCO2"
  discreteLabel: "inactive"
- compound: "C[N+](C)(CCNC(=O)c1cccc2cc3ccccc3nc12)Cc1ccc([N+](=O)[O-])cc1"
  discreteLabel: "inactive"
- compound: "O=S1(=O)CCC2=CC(C(F)(F)F)=CC(C(F)(F)F)=CN21"
  discreteLabel: "active"
- compound: "Cn1c2c(c3ccccc31)CCN(CCCN1CCN(c3ccccc3)CC1)C2=O"
  discreteLabel: "inactive"
- compound: "[O-][n+]1c2ccccc2[n+]([O-])c2ccccc21"
  discreteLabel: "inactive"
- compound: "CN(C)Cc1ccc(O)c(CN(C)C)n1"
  discreteLabel: "inactive"
- compound: "COc1ccc2nc3ccc(OC)cc3c([S+]([O-])Cc3ccccc3)c2c1 (centres undefined)"
  discreteLabel: "inactive"
- compound: "COc1nc(SC)nc2c1C(O)n1c(nc3ccccc31)S2 (centres undefined)"
  discreteLabel: "inactive"
- compound: "O=c1n(CCO)nc2n1CCCN2"
  discreteLabel: "inactive"
- compound: "CC(=O)OC1=CC2=CC[C@H]3[C@@H]4CCC(=O)[C@@]4(C)CC(=O)[C@]3(S)[C@@]2(C)CC1"
  discreteLabel: "inactive"

###

test system: RXF 393; test: NCI tumour cell line growth inhibition, 48 h
Calls of active or inactive are those of the source. Rule as the data show it: active = GI50 up to about 1.1 µM and inactive = higher.
quantityName: GI50

- inputSmiles: "C#C[C@]1(O)CC[C@H]2[C@@H]3CCc4cc(O)ccc4[C@H]3CC[C@@]21C"
  quantityName: "GI50"
  experimentalValue: "29 µM (inactive)"
- inputSmiles: "O[C@H]1[C@H](O)[C@@H](O)[C@@]2(O)C[C@@H](O)[C@@H]1N2"
  quantityName: "GI50"
  experimentalValue: "> 100 µM (inactive)"
- inputSmiles: "[N-]=[N+]=Nc1c(Cl)c(Cl)nc2ccccc12"
  quantityName: "GI50"
  experimentalValue: "88.5 µM (inactive)"
- inputSmiles: "N=C(N)Nc1nc2cc([N+](=O)[O-])ccc2[nH]1"
  quantityName: "GI50"
  experimentalValue: "58.9 µM (inactive)"
- inputSmiles: "Fc1nc(-c2c3ccccc3c3sc4ccccc4n23)nc(N2CCOCCOCCOCCOCC2)n1"
  quantityName: "GI50"
  experimentalValue: "18.5 µM (inactive)"
- inputSmiles: "N#C/C(=C\\c1ccc(O)c(O)c1)C(N)=O"
  quantityName: "GI50"
  experimentalValue: "19.7 µM (inactive)"
- inputSmiles: "COc1ccc(-c2cc(O)c3cc(C)cnc3n2)cc1"
  quantityName: "GI50"
  experimentalValue: "7.94 µM (inactive)"
- inputSmiles: "Cc1nc(O)nc2nc3ccc(Cl)cc3c(N(CCO)CCO)c12"
  quantityName: "GI50"
  experimentalValue: "73.6 µM (inactive)"
- inputSmiles: "C/C=C1/CN2[C@@H](C3=C[C@@H]4[C@@H]5N(C3=O)c3ccccc3[C@@]53CCN5C/C(=C/C)[C@@H]4C[C@H]53)C[C@@]34c5ccccc5N5C(=O)CC=C([C@H]1C[C@H]23)[C@H]54"
  quantityName: "GI50"
  experimentalValue: "2.17 µM (inactive)"
